- System: S. aureus ATCC 6538
- PROTOCOL_NOTES: BCT test (bacterial contact time), 60 s, log reduction / effect fraction; CI by Compusyn
- Format: cell-based, Staphylococcus aureus
- EXPERIMENTAL_PARAMETERS: Staphylococcus aureus, ATCC6538, 1 min, dose 0.150 % w/v; 60 s; in 25% EtOH; read-out: Log reduction
1 (yes) if log reduction at 0.15 % strength is below 7. 0 (no) if not; exact matches included in 0 (no).

Prompt: Lab note: confirm whether the reported log reduction at 0.15 % strength for this molecule is below 7, equality not counting. molecule: C=CCc1ccc(O)c(OC)c1
Response: 1 (yes)

Prompt: Does C/C=C/c1ccc(O)c(OC)c1 have log reduction at 0.15 % strength strictly under 7?
Response: 1 (yes)

Prompt: Hello, is log reduction at 0.15 % strength of the following molecule strictly smaller than 7? CC(C)=CCC/C(C)=C\CO [Nerol, (Z)-3,7-dimethyl-2,6-octadien-1-ol]
Response: 0 (no)

Prompt: Strictly below 7: is that where log reduction at 0.15 % strength of CC1=CCC(C(C)(C)O)CC1 (centres unmarked) sits?
Response: 1 (yes)

Prompt: Is the reported log reduction at 0.15 % strength for C=C(C)[C@@H]1CC=C(CO)CC1 strictly below 7?
Response: 0 (no)
